- Tested on: COLO 205 colon
- Test Method Notes: NCI-60 one-dose screen, 48 h (100 = growth as untreated, 0 = no growth, -100 = all killed)
- Test Context: 10 µM unless noted
- Method: Cells are grown in 96 well plates and exposed to the test compound for 48 hours. Compounds are tested at a single concentration, which is 10^-5 M for most compounds. The reported endpoint is percent growth (GI% or GIPRCNT), where numbers from 0 - 100% represent growth inhibition, and numbers from -100% - 0 represent cell death. For example, a value of 40 represents 60% growth inhibition. A value of 0 means no net growth occurred over the course of the experiment. […]
This is part of a sample that, as a whole, favours compounds with a hit. Of some 83,000 tested, about 20% had one in any assay. Where a SMILES comes first, the peptide text is derived from it. [ ]: non-standard residue; d: D form. ξ: configuration not given here. ξD = NC(CC(=O)O)C(=O)O
Rule: growth of 70% or more gives 1 (yes); anything lower gives 0 (no).

Solved cases below.
CC1C(c2ccccc2)OCCN1C(=S)Nc1ccc(S(=O)(=O)N2CCCCC2)cc1 (stereo unspecified)    1 (yes)
S=C(SSC(=S)N1CCOCC1)N1CCOCC1    0 (no)
OC(c1cc2ccc(C(F)(F)F)cc2c2cc(C(F)(F)F)ccc12)C1CCCCN1 (stereo unspecified)    0 (no)

Exercise: For this compound, is measured growth 70% or higher? CCN(CC)CC(O)c1cc(-c2ccc(Cl)cc2)nc2cc(Cl)ccc12 (stereo unspecified)
Key: 0 (no)

Exercise: For this compound, is measured growth 70% or higher? CCc1cccc(CC)c1N1C(=O)C=CC1=O
Key: 1 (yes)

Exercise: For this compound, is measured growth 70% or higher? NCC(=O)NC(CC(=O)O)C(=O)O (stereo unspecified) (H-Gly-[ξD]-OH)
Key: 1 (yes)

Exercise: For this compound, is measured growth 70% or higher? O=C(c1ccccc1)C(O)C(Br)(CBr)c1ccccc1 (stereo unspecified)
Key: 1 (yes)

Exercise: For this compound, is measured growth 70% or higher? Cc1cc(C)c(C#N)c(Sc2nc(C)c([N+](=O)[O-])c(C)c2C#N)n1
Key: 0 (no)

Exercise: For this compound, is measured growth 70% or higher? CCCCCCCCCCCCCCCCSC(=NCC)NCC
Key: 0 (no)

---

- System: UACC-62 melanoma
- Test Method Notes: NCI-60 one-dose screen, 48 h (100 = growth as untreated, 0 = no growth, -100 = all killed)
- Test Context: 10 µM unless noted
About 83,000 compounds went through this panel and 20% of them were active in at least one assay; those are over-represented in the sample as a whole. Active and inactive are the calls of the source. Rule for the calls: active = growth percent below 10; inactive = the rest.
Readout Kind: growth

Cc1nc([N+](=O)[O-])c(Sc2nncc(-c3ccccc3)n2)n1C    82.2% (inactive)
CCCc1cc(=O)oc2c3c(c4c(c12)OC(C)(C)CC4)OC(C)[C@H](C)[C@@H]3O (stereo partly specified)    68.9% (inactive)
O=C1C=CC(=O)N1c1ccc(O)cc1    95.4% (inactive)
O=C(CCl)N(c1ccccc1)c1ccccc1    95.6% (inactive)
COC(=O)c1cc([N+](=O)[O-])cc([N+](=O)[O-])c1Cl    90.6% (inactive)

Here's the next entry for you.
Exercise: Data request, read-out growth, for COc1c(C)c2c(c(O)c1C/C=C(\C)CCC(=O)O)C(=O)OC2
Key: 41.7% (inactive)

---

- Tested on: SF-539 CNS
- Test Method Notes: NCI-60 one-dose screen, 48 h
- Test Context: 10 µM unless noted
About 83,000 compounds went through this panel and 20% of them were active in at least one assay; those are over-represented in the sample as a whole. Calls of active or inactive are those of the source. Rule for the calls: active = growth percent below 10; inactive = the rest.
Your reply should match one of these outcome classes. y for active, n for inactive

Solved cases below.
COc1ccc(C(Cn2ccnc2)Sc2ccc(Cl)c(Cl)c2)cc1 (stereo unspecified)    n
OC(Cc1cc(CC(O)(C(F)(F)F)C(F)(F)F)nc(CC(O)(C(F)(F)F)C(F)(F)F)c1)(C(F)(F)F)C(F)(F)F    y
O=[N+]([O-])c1ccc([I+]c2ccccc2)cc1    y
CCC(C)C(N)C(=O)NC(CC(N)=O)C(=O)NC(CC(C)C)C(=O)NC(CCCCN)C(=O)NC(C)C(=O)NC(CC(C)C)C(=O)NC(C)C(=O)NC(C)C(=O)NC(CC(C)C)C(=O)NC(C)C(=O)NC(CCCCN)C(=O)NC(CCCCN)C(=O)NC(C(=O)NC(CC(C)C)C(N)=O)C(C)CC (stereo unspecified)    n

Exercise: What classification did CC1(C)OC2C(COC(c3ccccc3)(c3ccccc3)c3ccccc3)OC(c3c[nH]c4c(N)ncnc34)C2O1 (stereo unspecified) end up with in this test?
Key: n

Exercise: What classification did Cc1ccccc1NC(=O)Cc1csc2[n+]1C(=O)/C(=C/c1ccc([N+](=O)[O-])cc1)S2 end up with in this test?
Key: n

Exercise: What classification did COC(=O)[C@]1(C)CCC[C@]2(C)c3ccc(C(C)C)cc3C(=O)[C@@H](Br)[C@@H]12 end up with in this test?
Key: n

Exercise: What classification did CCN1/C(=C/C(C)=C/c2sc3ccc4ccccc4c3[n+]2CC)Sc2ccc3ccccc3c21 end up with in this test?
Key: y

---

- Test system: OVCAR-4 ovarian
- Test Method Notes: NCI-60 one-dose screen, 48 h
- Test Context: 10 µM unless noted
The panel holds about 83,000 compounds, 20% with a hit somewhere; the sample as a whole holds those more often. Activity calls are given as the source filed them. The calls were made as follows: active = growth percent below 10; inactive = the rest.
Your reply should match one of these outcome classes. active, inactive

Solved cases below.
Oc1ccc(Cl)cc1Cc1cc(Cl)ccc1O    inactive
S=C1SCN(Cc2cccs2)CN1Cc1cccs1    inactive
Oc1cc(Cl)ccc1Cc1ccc(Cl)cc1O    inactive
C/C(=N\NC(=S)N1CC2CCC(CC2)C1)c1ccccn1    active

Exercise: What classification did O=C(NOC(=O)c1ccccc1)c1ccccc1 end up with in this test?
Key: inactive

Exercise: What classification did O=Nc1ccc2ccccc2c1O end up with in this test?
Key: inactive

Exercise: What classification did Cc1nc(Sc2nc3ccc([N+](=O)[O-])cc3s2)sc1C end up with in this test?
Key: inactive

Exercise: What classification did S=C(SSC(=S)N1CCOCC1)N1CCOCC1 end up with in this test?
Key: inactive

Exercise: What classification did OC(c1cc2ccc(C(F)(F)F)cc2c2cc(C(F)(F)F)ccc12)C1CCCCN1 (stereo not drawn) end up with in this test?
Key: active

Exercise: What classification did CCOC(=O)C1=C(C(=O)c2ccccc2)C(c2cccc([N+](=O)[O-])c2)C(C(=O)c2ccccc2)=C(C(=O)OCC)N1 end up with in this test?
Key: inactive

Exercise: What classification did O=[n+]1c2ccccc2n([O-])c2cc(Cl)ccc21 end up with in this test?
Key: inactive

Exercise: What classification did CCC[CH2][Sn]1([CH2]CCC)[O]C2C(CO)OC(n3ccc(N)nc3=O)C2[O]1 (stereo not drawn) end up with in this test?
Key: active

Exercise: What classification did COc1ccc(C(OCC2OC(n3ccc(NC(=O)c4ccccc4)nc3=O)C(O)C2O)(c2ccccc2)c2ccccc2)cc1 (stereo not drawn) end up with in this test?
Key: inactive

Exercise: What classification did COc1cc(OC)c(/C=C/c2c3ccccc3cc[n+]2C)c(OC)c1 end up with in this test?
Key: inactive

Exercise: What classification did COc1ccc(NC(=O)/C(=C/N2C(=O)/C(=C/c3ccc(OC)c(OC)c3)NC2=S)C(C)=O)cc1 end up with in this test?
Key: inactive

Exercise: What classification did c1ccc(-c2cc3cc4ccccc4cn3c2)cc1 end up with in this test?
Key: inactive

Exercise: What classification did Clc1ccccc1C(c1ccccc1)(c1ccccc1)n1ccnc1 end up with in this test?
Key: inactive

Exercise: What classification did O=C(NNc1ccccc1)OCc1ccccc1 end up with in this test?
Key: inactive

Exercise: What classification did NC(=Nc1nc(-c2ccccn2)cc2ccccc12)c1ccccn1 end up with in this test?
Key: inactive

---

- Tested on: SN12C renal
- Test Method Notes: NCI-60 one-dose screen, 48 h (100 = growth as untreated, 0 = no growth, -100 = all killed)
- Test Context: 10 µM unless noted
This is part of a sample that, as a whole, favours compounds with a hit. Of some 83,000 tested, about 20% had one in any assay. Where a SMILES comes first, the peptide text is derived from it. [ ]: non-standard residue; d: D form. ξ: configuration not given here. ξD = NC(CC(=O)O)C(=O)O
Readout Kind: growth (%)
The answer is to be given in %; state only the numeric part.

CN(Cc1ccccc1)c1ccc(SC#N)cc1    103
O=C(NNc1ccccc1)OCc1ccccc1    84.9
Cc1cc(C)c([I+]c2c(C)cc(C)cc2C)c(C)c1    -66.2

Exercise: What measured growth is associated with CCCCCCCCCCCC[n+]1ccccc1 (tested in a mixture with another compound) on SN12C renal?
Key: -15.9

Exercise: What measured growth is associated with NCC(=O)NC(CC(=O)O)C(=O)O (configuration not stated) (H-Gly-[ξD]-OH) on SN12C renal?
Key: 99

Exercise: What measured growth is associated with CCCCCCCCCCCC[n+]1ccc2ccccc2c1 on SN12C renal?
Key: -18.4

Exercise: What measured growth is associated with O=C1C=CC(=O)c2c(O)c(CO)c(CO)c(O)c21 on SN12C renal?
Key: 101

Exercise: What measured growth is associated with O=C1C=CC(=O)N1c1ccccc1 on SN12C renal?
Key: 84.4

Exercise: What measured growth is associated with CCC1C[N+]2=C(c3cc(OC)c(OC)cc3CC2)c2c1cc1n2CCc2cc(OC)c(OC)cc2-1 (configuration not stated) on SN12C renal?
Key: 32.7

Exercise: What measured growth is associated with CCOc1ccc(Nc2nc3c(s2)C(=O)c2ccccc2C3=O)cc1 on SN12C renal?
Key: 51.3

Exercise: What measured growth is associated with CCc1cnc2ccccc2c1/C=C/c1ccc(N(C)C)cc1 on SN12C renal?
Key: 52.3

Exercise: What measured growth is associated with Cc1cc(N/N=C/c2ccccn2)nc2ccccc12 on SN12C renal?
Key: 17.4

Exercise: What measured growth is associated with O=[N+]([O-])c1cc(-c2ccccc2)c(O)c([N+](=O)[O-])c1 on SN12C renal?
Key: 73.7

Exercise: What measured growth is associated with NC(CS/C(Cl)=C/Cl)C(=O)O (configuration not stated) on SN12C renal?
Key: 87

Exercise: What measured growth is associated with O=C(NOC(=O)c1ccccc1)c1ccccc1 on SN12C renal?
Key: 108

Exercise: What measured growth is associated with O=C(Nc1ccc(Cl)c(Cl)c1)Nc1ccccc1O on SN12C renal?
Key: 76.4

Exercise: What measured growth is associated with CCC(C)C(N)C(=O)NC(CC(N)=O)C(=O)NC(CC(C)C)C(=O)NC(CCCCN)C(=O)NC(C)C(=O)NC(CC(C)C)C(=O)NC(C)C(=O)NC(C)C(=O)NC(CC(C)C)C(=O)NC(C)C(=O)NC(CCCCN)C(=O)NC(CCCCN)C(=O)NC(C(=O)NC(CC(C)C)C(N)=O)C(C)CC (configuration not stated) on SN12C renal?
Key: 89.5

Exercise: What measured growth is associated with N=C1C=C(N)C(=O)c2ccccc21 on SN12C renal?
Key: -66.9

Exercise: What measured growth is associated with Nc1nc(N)c2cc(Sc3cccc(C(F)(F)F)c3)ccc2n1 on SN12C renal?
Key: 26.5

Exercise: What measured growth is associated with CC1(C)N=c2cc3c(cc2N1c1ccc(Cl)cc1)=Nc1ccccc1N3c1ccc(Cl)cc1 on SN12C renal?
Key: 75.7

Exercise: What measured growth is associated with NCCCN(CCCN)CCCNCc1c2ccccc2c(CNCCCN(CCCN)CCCN)c2ccccc12 on SN12C renal?
Key: 110

Exercise: What measured growth is associated with COc1cc(OC)c(/C=C/c2c3ccccc3cc[n+]2C)c(OC)c1 on SN12C renal?
Key: 14.2
